The values you see were collected from patent US10670605B2.

biological target: cysteines in MDA-MB-231 and Ramos cells (Homo sapiens); experiment: Competitive isoTOP-ABPP in situ (fragment-treated cells); format: cell-based; conditions: 200 μM, insitu, 231
MEASURED_PARAMETER: isoTOP-ABPP ratio P51946_C244
Give the figure by itself; no unit, no explanation.

Q: // returns reported isoTOP-ABPP ratio P51946_C244 for input `O=C(CCl)NCCc1c[nH]c2ccccc12`
A: 1.0

Q: // returns reported isoTOP-ABPP ratio P51946_C244 for input `CC(C)CCOCCNC(=O)CCl`
A: 1.1

Q: // returns reported isoTOP-ABPP ratio P51946_C244 for input `O=C(CCl)NC12CC3CC(CC(C3)C1)C2`
A: 1.4

Q: // returns reported isoTOP-ABPP ratio P51946_C244 for input `O=C(CCl)NC(=O)NC12CC3CC(CC(C3)C1)C2`
A: 1.3

Q: // returns reported isoTOP-ABPP ratio P51946_C244 for input `Cc1ccc(C=C(C#N)C(=O)NCCN2CCOCC2)cc1`
A: 1.2

Q: // returns reported isoTOP-ABPP ratio P51946_C244 for input `O=C(CCl)Nc1cccc2ncccc12`
A: 0.7

Q: // returns reported isoTOP-ABPP ratio P51946_C244 for input CC1CCc2ccccc2N1C(=O)CCl (stereo not drawn)
A: 2.4

Q: // returns reported isoTOP-ABPP ratio P51946_C244 for input `C=CC(=O)Nc1cc(F)c(N2CCN(C(=O)OC(C)(C)C)CC2)c(F)c1`
A: 1.0

Q: // returns reported isoTOP-ABPP ratio P51946_C244 for input `O=C(CCl)N1CCN(S(=O)(=O)c2ccccc2F)CC1`
A: 1.7

====

Task for the reader: assign each of the following molecules its reported isoTOP-ABPP ratio O95336_C32.
Target: cysteines in MDA-MB-231 and Ramos cells (Homo sapiens)
Sequence (O95336 1-258): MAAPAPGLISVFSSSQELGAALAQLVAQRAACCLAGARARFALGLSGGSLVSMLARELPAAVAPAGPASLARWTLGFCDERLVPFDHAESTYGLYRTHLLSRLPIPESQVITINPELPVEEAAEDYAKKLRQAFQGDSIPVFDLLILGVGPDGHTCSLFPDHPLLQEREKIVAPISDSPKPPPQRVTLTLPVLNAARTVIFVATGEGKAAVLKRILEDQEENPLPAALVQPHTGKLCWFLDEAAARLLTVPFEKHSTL
Assay: Competitive isoTOP-ABPP in situ (fragment-treated cells)
Assay type: cell-based
Settings: 200 μM, insitu, 231
Give the figure by itself; no unit, no explanation.

Q: // returns reported isoTOP-ABPP ratio O95336_C32 for input O=C(CCl)NC12CC3CC(CC(C3)C1)C2 [compound 21]
A: 0.9

Q: // returns reported isoTOP-ABPP ratio O95336_C32 for input O=C(CCl)NCCc1c[nH]c2ccccc12 [compound 13]
A: 1.6

Q: // returns reported isoTOP-ABPP ratio O95336_C32 for input O=C(CCl)NC(=O)NC12CC3CC(CC(C3)C1)C2 [compound 12]
A: 20.0

Q: // returns reported isoTOP-ABPP ratio O95336_C32 for input CC(C)CCOCCNC(=O)CCl [compound 27]
A: 0.5

Q: // returns reported isoTOP-ABPP ratio O95336_C32 for input C=CC(=O)Nc1cc(F)c(N2CCN(C(=O)OC(C)(C)C)CC2)c(F)c1 [compound 38]
A: 2.8

Q: // returns reported isoTOP-ABPP ratio O95336_C32 for input Cc1ccc(C=C(C#N)C(=O)NCCN2CCOCC2)cc1 [compound 41]
A: 0.6
